I'd appreciate it if you could supply RUNX1 binding intensity values for the items below.
SUBJECT OF TEST: RUNX1 (UniProt Q01196)
Sequence (Q01196 whole entry): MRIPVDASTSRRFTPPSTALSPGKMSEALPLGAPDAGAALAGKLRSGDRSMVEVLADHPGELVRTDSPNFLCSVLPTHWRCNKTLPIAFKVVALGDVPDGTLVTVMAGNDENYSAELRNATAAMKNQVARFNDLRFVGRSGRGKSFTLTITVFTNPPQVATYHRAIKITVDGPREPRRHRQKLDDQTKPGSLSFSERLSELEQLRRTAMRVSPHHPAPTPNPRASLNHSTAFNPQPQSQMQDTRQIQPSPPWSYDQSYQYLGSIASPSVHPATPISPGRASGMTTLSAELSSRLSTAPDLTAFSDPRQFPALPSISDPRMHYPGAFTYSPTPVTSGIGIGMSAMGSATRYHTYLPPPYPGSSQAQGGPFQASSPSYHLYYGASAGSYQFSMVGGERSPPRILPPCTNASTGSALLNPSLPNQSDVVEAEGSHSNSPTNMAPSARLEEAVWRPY
EXPERIMENTAL PROTOCOL: RUNX1 binding intensity (PBM fluorescence) in presence of ETS1, normalised to RUNX1-only experiment (arbitrary fluorescence units); higher = stronger binding;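 also: Full-length recombinant human ETS1 or RUNX1 bound to double-stranded 36-bp genomic probes on microarrays, detected by protein-specific primary antibody and Alexa488 secondary, spot fluorescence as median of four replicate spots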
CONDITION DESCRIPTION: RUNX1 concentration 2 nM; ETS1 concentration 25 nM
API note: the answer field is a bare number with no unit suffix.

Lab request: please report RUNX1 binding intensity under test system RUNX1 (UniProt Q01196) for `GAACCTGGGAGGCGGAAGTTGCGGTTAGCCGAGATC`
56300

Try this sequence next: `GAGGGCTGCTTCCTGCTCTGTGGAGGCCGCAGCGGG`
1270

Same question, `AACAGACAGGATGTGGCCTCTGCCAAAACCACCATC` this time
2310

And then `GCCACCTCTTCCTGTGTTGCAAACCACAGGTCCACC` , what is it?
5050

What do we get for `CCCGGGGGCAGGAAATGTCGCCTTACCCACAGCCTT` ?
1210

Try this sequence next: `CCGGGTAGGATCCGGTTGCCTTTCTGCGGTGGAGGA`
1480

# iterate: `CGGGGGCCAGGCTTCCTGTGGTGGGAGCGGCAGGCC`
1350

Another sequence: `AACAGAGACCCGGAAGTTGTGGGACGAAGCCAGGAC`
1260

Then `CTGTGAGGCGGAAGTGGCGGGCTCTGTGGGCGCAAG` ?
1430

Can you check `GGGGGCGGAAGTTTCGGTGCATTGTGGGTTCTCCTG` next?
1140

Input `TGTGAACTGACAGGATGTGGTACAAGGCTTACAAAG`
1780

Next sequence: `GACACAAGAACAGCAGGATGTGGTCAGAGGCGTCGT`
3510
